Assay: qHTS of pediatric cancer cell lines to identify multiple opportunities for drug repurposing: Primary screen for Rh18 cells (AID 1347102); also: nearly all actives have a fitted effect of over 65% in size
Conditions: Rh18 rhabdomyosarcoma viability, CellTiter-Glo luminescence, 48 h; series mostly up to 46 µM
Records with an inconclusive call do not appear. Calls of active or inactive are those of the source. Calls follow the shape of the dose curve; as a rule, active = well fitted cell-killing curve with a large enough effect; inconclusive = small, poorly fitted or top-dose-only effect; inactive = flat fitted curve, though single readings scatter.
Your answer must be one of the following: 1 (active), -1 (inactive)

### Prompt Which outcome was assigned to Cc1cccc(Nc2ccncc2S(=O)(=O)NC(=O)NC(C)C)c1 in this test?
### Response -1

### Prompt Which outcome was assigned to O=C(O)C1CCCN(CCC=C(c2ccccc2)c2ccccc2)C1 (stereo not drawn) in this test?
### Response -1

### Prompt Which outcome was assigned to CN(CCOc1ccc(CC2SC(=O)NC2=O)cc1)c1ccccn1 (stereo not drawn) in this test?
### Response -1

### Prompt Which outcome was assigned to C[C@]12C=CC(=O)C=C1CC[C@@H]1[C@@H]2C(=O)C[C@@]2(C)[C@H]1CC[C@]2(O)C(=O)CO in this test?
### Response -1

### Prompt Which outcome was assigned to CCN(C)C(=O)Oc1cccc([C@H](C)N(C)C)c1 in this test?
### Response -1

### Prompt Which outcome was assigned to CC(=O)Oc1ccccc1C(=O)Nc1ncc([N+](=O)[O-])s1 in this test?
### Response 1

### Prompt Which outcome was assigned to C[C@@H](CN1CC(=O)NC(=O)C1)N1CC(=O)NC(=O)C1 in this test?
### Response -1

### Prompt Which outcome was assigned to CCCN[C@H]1CCc2nc(N)sc2C1 in this test?
### Response -1

### Prompt Which outcome was assigned to CCc1cc(C(N)=S)ccn1 in this test?
### Response -1

### Prompt Which outcome was assigned to COC(=O)Nc1nc2ccc(C(=O)c3ccccc3)cc2[nH]1 in this test?
### Response -1

### Prompt Which outcome was assigned to CC1(C)[C@H](C(=O)O)N2C(=O)C[C@H]2S1(=O)=O in this test?
### Response -1

### Prompt Which outcome was assigned to COc1cccc(N(C)C(=S)Oc2ccc3c(c2)CCCC3)n1 in this test?
### Response -1

### Prompt Which outcome was assigned to COC(c1ccccc1)(c1ccccc1)[C@H](Oc1nc(C)cc(C)n1)C(=O)O in this test?
### Response -1

### Prompt Which outcome was assigned to COc1cc(NS(=O)(=O)c2ccc(N)cc2)nc(OC)n1 in this test?
### Response -1

### Prompt Which outcome was assigned to CC(C)(C)NC(=O)[C@H]1CC[C@H]2[C@@H]3CC[C@H]4NC(=O)C=C[C@]4(C)[C@H]3CC[C@]12C in this test?
### Response -1

### Prompt Which outcome was assigned to CC(C)(C)C(=O)OCOP(=O)(COCCn1cnc2c(N)ncnc21)OCOC(=O)C(C)(C)C in this test?
### Response -1

### Prompt Which outcome was assigned to Nc1ccc(S(=O)(=O)Nc2ccccn2)cc1 in this test?
### Response -1

### Prompt Which outcome was assigned to COc1ncnc(NS(=O)(=O)c2ccc(N)cc2)c1OC in this test?
### Response -1

### Prompt Which outcome was assigned to CN1CCCC(n2nc(Cc3ccc(Cl)cc3)c3ccccc3c2=O)CC1 (stereo not drawn) in this test?
### Response 1

### Prompt Which outcome was assigned to CCCOc1ccc(C(=O)OCCN(CC)CC)cc1N in this test?
### Response -1

### Prompt Which outcome was assigned to O=C(N[C@H](CO)[C@H](O)c1ccc([N+](=O)[O-])cc1)C(Cl)Cl in this test?
### Response -1

### Prompt Which outcome was assigned to Cc1c(-c2ccc(O)cc2)n(Cc2ccc(OCCN3CCCCCC3)cc2)c2ccc(O)cc12 in this test?
### Response -1

### Prompt Which outcome was assigned to Nc1nc(N)nc(-c2cc(Cl)ccc2Cl)n1 in this test?
### Response -1

Reference source for all entries: PubChem BioAssay (NCATS)
